Sourced from patent US20080221060A1

target: UniProtKB P30543; experiment: Ki from displacement of [3H]-CGS21680 in rat striatal membranes at pH 5.5 and pH 7.4; assay type: binding; design: from tissue; host or cells: rat striatum (membranes); settings: pH 7.4; 2 nM [3H]-CGS21680, 90 minutes at 22° C.; read-out: (Ki) nM (pH 7.4)
Define the label as True when Ki is strictly less than 700 nM and as False in all remaining cases.

{"MOLECULE": "CN(C)c1nc(N)c2ncn([C@@H]3O[C@H](CO)[C@@H](O)[C@H]3O)c2n1", "CLASS LABEL": "False"}
{"MOLECULE": "Nc1nc(OCCO)nc2c1ncn2[C@@H]1O[C@H](CO)[C@@H](O)[C@H]1O [Compound 34, 2-(β-hydroxyethoxy)-adenosine]", "CLASS LABEL": "True"}
{"MOLECULE": "CCS(=O)(=O)c1nc(N)c2ncn([C@@H]3O[C@H](CO)[C@@H](O)[C@H]3O)c2n1", "CLASS LABEL": "False"}

Task: Quick check: does CC(C)NC(=O)[C@H]1O[C@@H](n2cnc3c(N)ncnc32)[C@H](O)[C@@H]1O have Ki under 700 nM?
Output: False

Task: Quick check: does CNc1ncnc2c1ncn2[C@@H]1O[C@H](C(=O)NC(C)C)[C@@H](O)[C@H]1O have Ki under 700 nM?
Output: False

Task: Quick check: does CCCCCCNc1nc(N)c2ncn([C@@H]3O[C@H](C(=O)NCCCC)[C@@H](O)[C@H]3O)c2n1 have Ki under 700 nM?
Output: True

Task: Quick check: does Nc1nc(OCC2CC2)nc2c1ncn2[C@@H]1O[C@H](CO)[C@@H](O)[C@H]1O have Ki under 700 nM?
Output: True

Task: Quick check: does N#Cc1nc(N)c2ncn([C@@H]3O[C@H](CO)[C@@H](O)[C@H]3O)c2n1 have Ki under 700 nM?
Output: True

Task: Quick check: does CNc1nc(N)c2ncn([C@@H]3O[C@H](CO)[C@@H](O)[C@H]3O)c2n1 have Ki under 700 nM?
Output: False

Task: Quick check: does CC(C)CCNc1ncnc2c1ncn2[C@@H]1O[C@H](C(=O)NC(C)C)[C@@H](O)[C@H]1O have Ki under 700 nM?
Output: False

----------
target: adenosine receptors (rat striatal membranes, [3H]-CGS21680) (Rattus norvegicus, UniProt P30543); assay: Ki from displacement of [3H]-CGS21680 in rat striatal membranes at pH 5.5 and pH 7.4; assay type: binding; parameters: from tissue; host or cells: rat striatum (membranes); conditions: pH 5.5; 2 nM [3H]-CGS21680, 90 minutes at 22° C.; read-out: (Ki) nM (pH 5.5)
Sequence (P30543 whole entry): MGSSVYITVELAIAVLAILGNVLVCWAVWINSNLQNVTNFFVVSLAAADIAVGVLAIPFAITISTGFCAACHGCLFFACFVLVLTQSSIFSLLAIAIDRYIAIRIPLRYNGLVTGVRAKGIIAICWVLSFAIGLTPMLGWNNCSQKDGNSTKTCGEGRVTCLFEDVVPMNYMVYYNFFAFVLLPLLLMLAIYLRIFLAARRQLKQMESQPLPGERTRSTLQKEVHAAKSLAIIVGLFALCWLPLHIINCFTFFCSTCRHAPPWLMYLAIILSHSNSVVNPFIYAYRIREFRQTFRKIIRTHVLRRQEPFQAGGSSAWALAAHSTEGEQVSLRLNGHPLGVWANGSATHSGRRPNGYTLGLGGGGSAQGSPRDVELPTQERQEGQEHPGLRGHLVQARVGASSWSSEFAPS
Define the label as MET when Ki is strictly less than 30 nM and as NOT MET in all remaining cases.

Solved cases (5 shown):
{"SMILES REPR": "COc1nc(N)c2ncn([C@@H]3O[C@H](C(=O)Nc4ccccc4)[C@@H](O)[C@H]3O)c2n1", "CLASS LABEL": "NOT MET"}
{"SMILES REPR": "CNc1ncnc2c1ncn2[C@@H]1O[C@H](C(=O)NC(C)C)[C@@H](O)[C@H]1O", "CLASS LABEL": "NOT MET"}
{"SMILES REPR": "CCCC(=O)NC[C@H]1O[C@@H](n2cnc3c(N)ncnc32)[C@H](O)[C@@H]1O", "CLASS LABEL": "NOT MET"}
{"SMILES REPR": "Cc1nc2c(N)nc(NC3CCCCC3)nc2n1[C@@H]1O[C@H](CO)[C@@H](O)[C@H]1O", "CLASS LABEL": "NOT MET"}
{"SMILES REPR": "Nc1nc(Oc2ccccc2)nc2c1ncn2[C@@H]1O[C@H](CO)[C@@H](O)[C@H]1O", "CLASS LABEL": "NOT MET"}

Task: Quick check: does COc1ccc(Nc2nc(N)c3ncn([C@@H]4O[C@H](CO)[C@@H](O)[C@H]4O)c3n2)cc1 have Ki under 30 nM?
Output: MET

Task: Quick check: does Nc1nc(Oc2cc(F)ccc2F)nc2c1ncn2[C@@H]1O[C@H](CO)[C@@H](O)[C@H]1O have Ki under 30 nM?
Output: MET
